A collection of compounds and their measured pIC50
molecular target: Wee1-like protein kinase (Homo sapiens)
Sequence (P30291 whole entry): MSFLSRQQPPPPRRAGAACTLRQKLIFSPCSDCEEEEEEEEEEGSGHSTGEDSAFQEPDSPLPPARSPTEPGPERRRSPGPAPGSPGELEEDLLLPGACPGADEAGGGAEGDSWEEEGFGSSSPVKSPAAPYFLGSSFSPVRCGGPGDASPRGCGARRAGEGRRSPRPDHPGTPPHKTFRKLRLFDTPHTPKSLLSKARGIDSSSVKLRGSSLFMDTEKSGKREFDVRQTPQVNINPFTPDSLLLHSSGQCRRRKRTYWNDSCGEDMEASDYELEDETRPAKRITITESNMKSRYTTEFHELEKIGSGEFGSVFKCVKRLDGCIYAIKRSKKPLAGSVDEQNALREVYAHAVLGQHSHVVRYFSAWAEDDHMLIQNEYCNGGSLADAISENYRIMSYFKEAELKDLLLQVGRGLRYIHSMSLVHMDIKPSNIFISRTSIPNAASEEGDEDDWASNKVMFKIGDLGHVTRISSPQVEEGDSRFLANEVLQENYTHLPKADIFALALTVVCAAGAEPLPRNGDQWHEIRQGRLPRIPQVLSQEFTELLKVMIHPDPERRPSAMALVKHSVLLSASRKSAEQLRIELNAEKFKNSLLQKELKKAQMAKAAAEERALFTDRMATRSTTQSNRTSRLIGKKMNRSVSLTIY
Just the number, please; pIC50 means minus log10 of the concentration in mol/L.

C=CCn1c(=O)c2cnc(Nc3ccc(N4CCN(C)CC4)cc3)nc2n1-c1ccc2c(n1)C(C)(O)CO2 (single isomer, unassigned); 8.34
Cc1cn(-c2c(Cl)cccc2Cl)c(=O)c2cnc(Nc3ccc(N4CCN(C)CC4)cc3)nc12; 8.70
C=CCn1c(=O)c2cnc(Nc3ccc(N4CCN(C)CC4)cc3)nc2n1-c1ccc2c(n1)[C@@](O)(C(F)F)CC2; 8.59
C=CCn1c(=O)c2cnc(Nc3cc(N4CCN(C)CC4)c4ccn(C)c4c3)nc2n1-c1ccc2c(n1)[C@@](O)(CC)CC2; 7.92
C=CCn1c(=O)c2cnc(Nc3ccc(N4CCN(C)CC4)cc3)nc2n1-c1ccc2c(n1)[C@@](C)(O)CC2; 8.28

input: Name the reported pIC50 value associated with the compound C=CCn1c(=O)c2cnc(Nc3ccc(N4CCN(C)CC4)cc3)nc2n1-c1ccc2c(n1)C(O)CC2 (stereo in doubt; 9)
output: 8.37

----------
experiment: Octanol/buffer distribution coefficient, logD of the compound at pH 7.4; type: physicochemical
Classification field: enter yes for logD values not below 2, no for values below it.

# count of solved cases: 6
C=CCn1c(=O)c2cnc(Nc3ccc4c(c3)CNCC43CC3)nc2n1-c1cccc(C(C)(C)O)n1; no
C=CCn1c(=O)c2cnc(Nc3ccc(N4CCN(C)CC4)cc3)nc2n1-c1ccc2c(n1)C(C)(O)CO2 (single isomer, unassigned); no
Cc1cn(-c2c(Cl)cccc2Cl)c(=O)c2cnc(Nc3ccc(N4CCN(C)CC4)cc3)nc12; yes
C=CCn1c(=O)c2cnc(Nc3ccc4c(c3)CNCC43CC3)nc2n1-c1ccc2c(n1)[C@@](O)(C(F)(F)F)CC2; yes
C=CCn1c(=O)c2cnc(Nc3ccc(N4CCN(C)CC4)cc3)nc2n1-c1ccc2c(n1)C(O)(CC)CC2 (racemic); yes
C=CCn1c(=O)c2cnc(Nc3ccc4c(c3)CNCC4)nc2n1-c1cccc(C(C)(C)O)n1; no

Kindly review the next compound as well.
input: Decide: logD of C=CCn1c(=O)c2cnc(Nc3ccc(N4CCN(C)CC4)cc3)nc2n1-c1ccc2c(n1)[C@@](O)(CC)CCC2 >= 2?
output: yes

----------
assay: AUC in mouse plasma at 80 mg/kg, po administered once daily for 28 days; assay type: ADME, organism-based; parameters: time 28 day, dose 80 mg/kg
TEST READOUT: AUC at 672 h (µM·h)
State the answer as a number, implicitly in µM·h.

C=CCn1c(=O)c2cnc(Nc3ccc(N4CCN(C)CC4)cc3)nc2n1-c1ccc2c(n1)[C@](C)(O)CCC2; 83

input: Name the reported AUC at 672 h value associated with the molecule C=CCn1c(=O)c2cnc(Nc3ccc(N4CCN(C)CC4)cc3)nc2n1-c1cccc(C(C)(C)O)n1
output: 44

input: Name the reported AUC at 672 h value associated with the molecule C=CCn1c(=O)c2cnc(Nc3ccc(N4CCN(C)CC4)cc3)nc2n1-c1ccc2c(n1)C(O)(CC)CC2 (racemic)
output: 45

----------
experiment: Oral bioavailability in Beagle dog at 10 mg/kg measured upto 24 hrs by LC-MS/MS analysis; assay type: ADME, organism-based, Canis lupus familiaris; conditions: in vivo
TEST READOUT: bioavailability (%)
State the answer as a number, implicitly in %.

input: Name the reported bioavailability value associated with the compound C=CCn1c(=O)c2cnc(Nc3ccc(N4CCN(C)CC4)cc3)nc2n1-c1ccc2c(n1)C(O)(CC)CC2 (racemic)
output: 142
